# Tested on: 171881-019-R-J1-PDC complex spheroid growth, % test/control;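 note: spheroids exposed to compounds for 7 days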
# method.description: Anticancer human tumor 171881-019-R-J1-PDC patient-derived invasive breast carcinoma cell line growth inhibition [Asc]
# test.conditions: second compound 0.316 µM; first compound 0.316 µM; stronger effect = lower value
Hi there, I'd appreciate the recorded viability, T/C for every entry that follows.

I am curious: what viability, T/C value has been reported for COc1c(OCCCN2CCOCC2)ccc2c3n(c(=NC(=O)c4cnc(N)nc4)nc12)CCN3 + Cc1c(S(C)(=O)=O)c(-c2cc(F)cc(N3CCN(c4ccc(NS(=O)(=O)c5ccc(NC(CCN6CCC(C(=O)OCCCP(=O)(O)O)CC6)CSc6ccccc6)c(S(=O)(=O)C(F)(F)F)c5)cc4)CC3)c2)c(-c2ccc(Cl)cc2)n1C(C)C ?
0.77%

Can you check C#Cc1c(F)ccc2cc(O)cc(-c3ncc4c(N5CC6CCC(C5)N6)nc(OCC56CCCN5CC(F)C6)nc4c3F)c12 (stereo not given) + Cc1c(S(C)(=O)=O)c(-c2cc(F)cc(N3CCN(c4ccc(NS(=O)(=O)c5ccc(NC(CCN6CCC(C(=O)OCCCP(=O)(O)O)CC6)CSc6ccccc6)c(S(=O)(=O)C(F)(F)F)c5)cc4)CC3)c2)c(-c2ccc(Cl)cc2)n1C(C)C next?
219%

Could you do the same for C=CC(=O)N1CCN(c2nc(=O)n(-c3c(C)ccnc3C(C)C)c3nc(-c4c(O)cccc4F)c(F)cc23)C(C)C1 (stereo not given) + Cc1c(S(C)(=O)=O)c(-c2cc(F)cc(N3CCN(c4ccc(NS(=O)(=O)c5ccc(NC(CCN6CCC(C(=O)OCCCP(=O)(O)O)CC6)CSc6ccccc6)c(S(=O)(=O)C(F)(F)F)c5)cc4)CC3)c2)c(-c2ccc(Cl)cc2)n1C(C)C , please?
118%

Record: O=C(c1ccc(F)c(F)c1Nc1ccc(I)cc1F)N1CC(O)([C@@H]2CCCCN2)C1 + Cc1c(S(C)(=O)=O)c(-c2cc(F)cc(N3CCN(c4ccc(NS(=O)(=O)c5ccc(NC(CCN6CCC(C(=O)OCCCP(=O)(O)O)CC6)CSc6ccccc6)c(S(=O)(=O)C(F)(F)F)c5)cc4)CC3)c2)c(-c2ccc(Cl)cc2)n1C(C)C
18.7%

Also check COc1c(OCCCN2CCOCC2)ccc2c3n(c(=NC(=O)c4cnc(N)nc4)nc12)CCN3 + CNC(C)C(=O)NC1CN(S(=O)(=O)c2cccc(S(=O)(=O)N3CCC4CCC(C(=O)NC(c5ccccc5)c5ccccc5)N4C(=O)C(NC(=O)C(C)NC)C3)c2)CCC2CCC(C(=O)NC(c3ccccc3)c3ccccc3)N2C1=O
3.14%

Next entry: CCN1CCN(Cc2ccc(Nc3ncc(F)c(-c4cc(F)c5nc(C)n(C(C)C)c5c4)n3)nc2)CC1 + CNC(C)C(=O)NC1CN(S(=O)(=O)c2cccc(S(=O)(=O)N3CCC4CCC(C(=O)NC(c5ccccc5)c5ccccc5)N4C(=O)C(NC(=O)C(C)NC)C3)c2)CCC2CCC(C(=O)NC(c3ccccc3)c3ccccc3)N2C1=O
142%

Moving on to the next compound: C=CC(=O)N1CCN(c2nc(=O)n(-c3c(C)ccnc3C(C)C)c3nc(-c4c(O)cccc4F)c(F)cc23)C(C)C1 (stereo not given) + CNC(C)C(=O)NC1CN(S(=O)(=O)c2cccc(S(=O)(=O)N3CCC4CCC(C(=O)NC(c5ccccc5)c5ccccc5)N4C(=O)C(NC(=O)C(C)NC)C3)c2)CCC2CCC(C(=O)NC(c3ccccc3)c3ccccc3)N2C1=O
103%

How about CCN1CCN(Cc2ccc(Nc3ncc(F)c(-c4cc(F)c5nc(C)n(C(C)C)c5c4)n3)nc2)CC1 + Cc1c(S(C)(=O)=O)c(-c2cc(F)cc(N3CCN(c4ccc(NS(=O)(=O)c5ccc(NC(CCN6CCC(C(=O)OCCCP(=O)(O)O)CC6)CSc6ccccc6)c(S(=O)(=O)C(F)(F)F)c5)cc4)CC3)c2)c(-c2ccc(Cl)cc2)n1C(C)C ?
178%

Likewise for C=C(F)C(=O)N1CCN(c2nc(OCC3CCCN3C)nc3c2CCN(c2cccc4cccc(Cl)c24)C3)CC1CC#N (stereo not given) + Cc1c(S(C)(=O)=O)c(-c2cc(F)cc(N3CCN(c4ccc(NS(=O)(=O)c5ccc(NC(CCN6CCC(C(=O)OCCCP(=O)(O)O)CC6)CSc6ccccc6)c(S(=O)(=O)C(F)(F)F)c5)cc4)CC3)c2)c(-c2ccc(Cl)cc2)n1C(C)C ?
113%

Can you handle O=C(c1ccc(F)c(F)c1Nc1ccc(I)cc1F)N1CC(O)([C@@H]2CCCCN2)C1 + CNC(C)C(=O)NC1CN(S(=O)(=O)c2cccc(S(=O)(=O)N3CCC4CCC(C(=O)NC(c5ccccc5)c5ccccc5)N4C(=O)C(NC(=O)C(C)NC)C3)c2)CCC2CCC(C(=O)NC(c3ccccc3)c3ccccc3)N2C1=O next?
68.2%

Reference for the values: PubChem BioAssay AID1963428
